Source: patent US10875876B2

For each record, write down the corresponding melting point.
Numbers only, in °C.

>>> value_reported("Cn1cc2c(c1C(=O)Nc1ccc(F)c(F)c1)OCC(C)(c1ncccn1)NS2(=O)=O (single isomer, unassigned) [Compound 153a]")
228.3

Give melting point for all compounds that follow.
1. CCC(O)[C@@H]1COc2c(cn(C)c2C(=O)Nc2ccc(F)c(C#N)c2)S(=O)(=O)N1 (stereo in doubt)
2. CC1C=Cc2c(csc2C(=O)Nc2ccc(F)c(F)c2)S(=O)(=O)N1 (stereo not drawn)
3. C[C@H]1CCc2c(cn(C)c2C(=O)Nc2ccc(F)c(C#N)c2F)S(=O)(=O)N1
4. Cn1cc2c(c1C(=O)Nc1ccc(F)c(F)c1)OC[C@@H](C(C)(C)O)NS2(=O)=O

1: 247; 2: 220.8; 3: 247.5; 4: 234.1

Below is a list of compounds. For each, state its recorded melting point.
1. CCC(O)[C@H]1COc2c(cn(C)c2C(=O)Nc2ccc(F)c(C(F)F)c2)S(=O)(=O)N1 (stereo partly drawn)
2. CC(NCC(F)(F)F)C1CCc2c(cn(C)c2C(=O)Nc2cc(F)c(F)c(F)c2)S(=O)(=O)N1 (stereo not drawn)
3. Cn1cc2c(c1C(=O)Nc1ccc(F)c(C(F)F)c1)OC[C@](C)(c1ccccn1)NS2(=O)=O
4. Cn1cc2c(c1C(=O)Nc1ccc(F)c(F)c1)OCC(C)(Cc1ccnc(Cl)c1)NS2(=O)=O (stereo not drawn)

1. 224.5
2. 216.2
3. 208.8
4. 225

Take each entry in turn and give its melting point.
1. Cn1cc2c(c1C(=O)Nc1ccc(F)c(Br)c1F)CCC(C(C)(C)O)NS2(=O)=O (stereo not drawn)
2. Cn1cc2c(c1C(=O)Nc1ccc(F)c(F)c1)OCC(C)(Cc1cccnc1)NS2(=O)=O (racemic)

[236.8, 268.3]
